test: in vitro; details: cynomolgus monkey (Macaca fascicularis)
efflux ratio at 10 μM reference

STRUCTURE AS SMILES	efflux ratio at 10 μM
CC[C@]1(O)C[C@@H]2CN(CCc3c([nH]c4ccccc34)[C@@](C(=O)OC)(c3cc4c(cc3OC)N(C)[C@H]3[C@@](O)(C(=O)OC)[C@H](OC(C)=O)[C@]5(CC)C=CCN6CC[C@]43[C@@H]65)C2)C1	1.46
COc1ccc2c(c1)c(CC(=O)O)c(C)n2C(=O)c1ccc(Cl)cc1	1.2
CN/C(=N/CCSCc1nc[nH]c1C)NC#N	0.97

----------
experiment: in vitro; conditions: cynomolgus monkey (Macaca fascicularis)
Items are presented alongside their recorded Papp B→A at 10 μM.

STRUCTURE AS SMILES	Papp B→A at 10 μM, ×10⁻⁶ cm/s
CC[C@]1(O)C[C@@H]2CN(CCc3c([nH]c4ccccc34)[C@@](C(=O)OC)(c3cc4c(cc3OC)N(C)[C@H]3[C@@](O)(C(=O)OC)[C@H](OC(C)=O)[C@]5(CC)C=CCN6CC[C@]43[C@@H]65)C2)C1	2.14
Cn1c(=O)c2c(ncn2C)n(C)c1=O	65.2
CN/C(=N/CCSCc1nc[nH]c1C)NC#N	2.88
COc1ccc2c(c1)c(CC(=O)O)c(C)n2C(=O)c1ccc(Cl)cc1	39.1
